- assay-system: ROCK1 (Homo sapiens (Human), UniProt Q13464)
- Sequence (Q13464 2-1354 limits assumed): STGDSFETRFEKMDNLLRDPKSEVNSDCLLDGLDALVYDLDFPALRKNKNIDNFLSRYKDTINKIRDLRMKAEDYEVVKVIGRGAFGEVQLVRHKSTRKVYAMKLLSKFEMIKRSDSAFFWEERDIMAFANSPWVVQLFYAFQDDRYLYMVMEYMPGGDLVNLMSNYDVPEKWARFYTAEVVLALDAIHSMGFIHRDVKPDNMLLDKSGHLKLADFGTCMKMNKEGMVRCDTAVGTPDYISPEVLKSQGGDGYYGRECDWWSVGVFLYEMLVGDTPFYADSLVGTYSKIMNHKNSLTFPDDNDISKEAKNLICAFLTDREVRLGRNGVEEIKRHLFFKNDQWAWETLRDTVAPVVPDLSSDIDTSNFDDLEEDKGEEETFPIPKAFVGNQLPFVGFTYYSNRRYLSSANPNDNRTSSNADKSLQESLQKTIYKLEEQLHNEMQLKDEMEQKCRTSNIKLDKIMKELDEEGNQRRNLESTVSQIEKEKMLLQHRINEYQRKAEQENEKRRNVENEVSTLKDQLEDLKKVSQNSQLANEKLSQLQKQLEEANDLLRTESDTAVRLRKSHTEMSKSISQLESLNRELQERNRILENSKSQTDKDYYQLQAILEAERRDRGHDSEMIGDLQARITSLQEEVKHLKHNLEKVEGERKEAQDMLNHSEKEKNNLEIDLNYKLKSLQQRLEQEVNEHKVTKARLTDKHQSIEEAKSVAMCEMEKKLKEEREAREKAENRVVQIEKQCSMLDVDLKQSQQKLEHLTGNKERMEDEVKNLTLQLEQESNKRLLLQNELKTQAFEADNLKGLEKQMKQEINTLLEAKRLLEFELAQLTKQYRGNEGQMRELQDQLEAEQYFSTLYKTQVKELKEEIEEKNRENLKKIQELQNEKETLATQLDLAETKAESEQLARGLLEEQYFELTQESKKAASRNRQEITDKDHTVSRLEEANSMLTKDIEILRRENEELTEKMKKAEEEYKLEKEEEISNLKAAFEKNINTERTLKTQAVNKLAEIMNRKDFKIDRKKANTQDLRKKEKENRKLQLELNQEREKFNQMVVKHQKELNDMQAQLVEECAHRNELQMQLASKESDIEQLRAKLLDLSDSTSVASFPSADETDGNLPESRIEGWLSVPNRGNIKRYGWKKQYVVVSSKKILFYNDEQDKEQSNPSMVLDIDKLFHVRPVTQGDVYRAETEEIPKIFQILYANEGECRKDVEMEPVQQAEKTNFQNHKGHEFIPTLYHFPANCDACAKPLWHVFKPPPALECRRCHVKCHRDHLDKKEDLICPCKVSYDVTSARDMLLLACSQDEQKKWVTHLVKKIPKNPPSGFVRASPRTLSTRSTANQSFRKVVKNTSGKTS
- method-notes: biochemical
assay-endpoint: Ki (nM)
Answer format: numeric, nM implied, no suffix.

Sample records with Ki:
compound="c1csc(-c2c[nH]c3nccc(O[C@@H]4CCCNC4)c23)n1 [Example E212]" recorded_number=29.9
compound="Cc1cnc(-c2c[nH]c3nccc(N4CCC[C@@]5(CCCCN5)C4)c23)s1 [Example E146]" recorded_number=203
compound="N#Cc1c[nH]c2nccc(N3CC[C@@H](N)C3)c12 [Example E197]" recorded_number=19.8

Entry under test: O[C@@H]1CCCN(c2ccnc3[nH]cc(-c4cncnc4)c23)C1 [Example E100] . Its Ki was 505

Entry under test: Brc1cnc2[nH]cc(-c3cc[nH]n3)c2c1N1CCCCC1 [Example E70] . Its Ki was 1300

Entry under test: CN1CCCN(C(=O)[C@@H]2CCCN2c2ccnc3[nH]cc(C#N)c23)CC1 [Example E201] . Its Ki was 1050

###

- assay-system: ROCK2 (Homo sapiens (Human), UniProt O75116)
- Sequence (O75116 whole entry): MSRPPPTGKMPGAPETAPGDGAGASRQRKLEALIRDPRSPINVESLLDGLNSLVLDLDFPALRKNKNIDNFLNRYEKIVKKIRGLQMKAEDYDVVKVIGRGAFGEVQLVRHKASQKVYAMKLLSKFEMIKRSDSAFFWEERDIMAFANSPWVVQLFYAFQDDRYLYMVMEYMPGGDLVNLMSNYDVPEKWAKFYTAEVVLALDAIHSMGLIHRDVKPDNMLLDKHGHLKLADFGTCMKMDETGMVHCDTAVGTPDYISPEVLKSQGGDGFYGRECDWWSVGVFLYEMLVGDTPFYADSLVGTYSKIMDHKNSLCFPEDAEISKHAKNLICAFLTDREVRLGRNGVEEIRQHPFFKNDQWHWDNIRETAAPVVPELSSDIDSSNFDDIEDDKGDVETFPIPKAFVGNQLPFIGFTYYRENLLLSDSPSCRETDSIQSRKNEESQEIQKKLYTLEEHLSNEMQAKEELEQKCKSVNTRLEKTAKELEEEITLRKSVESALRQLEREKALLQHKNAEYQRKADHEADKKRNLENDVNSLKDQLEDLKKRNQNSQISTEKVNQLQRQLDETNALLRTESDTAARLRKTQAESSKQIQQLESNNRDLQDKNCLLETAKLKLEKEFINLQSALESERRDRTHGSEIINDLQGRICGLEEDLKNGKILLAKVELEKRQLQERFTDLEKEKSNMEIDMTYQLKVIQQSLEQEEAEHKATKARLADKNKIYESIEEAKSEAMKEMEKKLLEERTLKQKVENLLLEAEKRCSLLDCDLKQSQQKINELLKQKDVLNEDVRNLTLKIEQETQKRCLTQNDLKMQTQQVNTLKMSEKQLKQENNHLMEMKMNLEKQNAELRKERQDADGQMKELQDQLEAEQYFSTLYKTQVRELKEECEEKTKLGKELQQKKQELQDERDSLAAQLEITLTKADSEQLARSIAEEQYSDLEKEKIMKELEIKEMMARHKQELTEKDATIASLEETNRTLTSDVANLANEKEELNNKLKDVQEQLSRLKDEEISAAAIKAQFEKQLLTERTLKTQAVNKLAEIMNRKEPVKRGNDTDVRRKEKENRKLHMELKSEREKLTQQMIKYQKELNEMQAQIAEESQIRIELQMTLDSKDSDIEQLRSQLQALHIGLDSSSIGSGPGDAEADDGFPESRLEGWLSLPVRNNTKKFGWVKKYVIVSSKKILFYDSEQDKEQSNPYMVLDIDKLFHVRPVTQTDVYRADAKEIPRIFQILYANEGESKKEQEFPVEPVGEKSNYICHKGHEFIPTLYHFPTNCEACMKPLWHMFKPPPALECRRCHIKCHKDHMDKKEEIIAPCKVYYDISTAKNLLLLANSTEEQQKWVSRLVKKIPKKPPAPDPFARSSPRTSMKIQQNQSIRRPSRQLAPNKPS
- method-notes: ROCK2 kinase assay (IMAP fluorescence polarization)
- Assay type: biochemical
- experimental-parameters: 1 μM ATP; read-out: ROCK2 Average Ki
Kindly apply the following: T if Ki is less than 200 nM, F in every other case.

Please review the entries below; each comes with its answer.
molecule="NC1CCCN(c2ccnc3[nH]cc(-c4cncnc4)c23)C1 (centres unmarked)" assigned_class=T
molecule="Cc1csnc1-c1c[nH]c2nccc(N3CCCC4(CCCCN4)C3)c12 (centres unmarked)" assigned_class=F
molecule=CN1CCCC[C@@]12CCCN(c1ccnc3[nH]cc(-c4ccncn4)c13)C2 assigned_class=T
molecule=c1ncc(-c2c[nH]c3nccc(N4CCC[C@H](N5CCC5)C4)c23)cn1 assigned_class=F
molecule="CNC1CCCN(c2ccnc3[nH]cc(-c4cncnc4)c23)CC1 (centres unmarked)" assigned_class=T

For this molecule, is Ki lower than 200 nM? `CCN[C@H]1CCCN(c2ccnc3[nH]cc(-c4cnn(C)c4)c23)C1` T

For this molecule, is Ki lower than 200 nM? `c1cc(N2CCCCC2)c2c(-c3ccc4[nH]ncc4c3)c[nH]c2n1` T

For this molecule, is Ki lower than 200 nM? `c1ncc(-c2c[nH]c3nccc(OC[C@H]4CCCNC4)c23)cn1` T

For this molecule, is Ki lower than 200 nM? c1cnc(-c2c[nH]c3nccc(N4CCCC5(CCCCN5)C4)c23)nc1 (centres unmarked) F

For this molecule, is Ki lower than 200 nM? `CN1CCCN(c2ccnc3[nH]cc(C#N)c23)CC1` T

###

- assay-system: MRCKβ (Homo sapiens (Human), UniProt Q9Y5S2)
- method-notes: MRCKβ kinase assay (IMAP fluorescence polarization)
- Assay type: biochemical
- experimental-parameters: 1 μM ATP; read-out: MRCK-B Average Ki
assay-endpoint: Ki (nM)
Answer format: numeric, nM implied, no suffix.

Entry under test: `N[C@@H]1CCCN(c2ccnc3[nH]cc(-c4cncnc4)c23)C1` . Its Ki was 14.8

Entry under test: CN(C)C1CCCN(c2ccnc3[nH]cc(-c4cncnc4)c23)C1 (centres unmarked) . Its Ki was 13.6

Entry under test: `CCN1CCCC[C@]12CCCN(c1ccnc3[nH]cc(-c4cncnc4)c13)C2` . Its Ki was 9.73
